test system: EKVX; test: NCI tumour cell line growth inhibition, 48 h
Active and inactive are the calls of the source. No stated cut-off is given here; in the data, active = GI50 up to about 1.1 µM and inactive = higher.
endpoint name: GI50

Asked: // lookup GI50 for COc1ccc(C2CC3(c4ccccc4)ON=C(c4ccccc4)N3c3ccccc3S2)cc1 (centres undefined)
Given back: > 100 µM (inactive)

Asked: And `Cc1c(Cl)ccc2[s+]snc12` ?
Given back: > 100 µM (inactive)

Asked: And `O=C(/C=C/c1ccc(O)c([N+](=O)[O-])c1)CC(=O)/C=C/c1ccc(O)c([N+](=O)[O-])c1` ?
Given back: 50.9 µM (inactive)

Asked: And `c1ccc2sc(SCSc3nc4ccccc4s3)nc2c1` ?
Given back: 50.1 µM (inactive)

Asked: And `c1ccc(CSCCC(SCc2ccccc2)SCc2ccccc2)cc1` ?
Given back: > 10 µM (inactive)

Asked: And `N#Cc1nnn(-c2ccccc2)c1O` ?
Given back: > 100 µM (inactive)

Asked: And COC(c1ccccc1)C(c1ccccc1)N1CCOCC1 (centres undefined) ?
Given back: > 100 µM (inactive)

Asked: And O=C1NC2CCCCC2N=C1CC(=O)c1ccc(Br)cc1 (centres undefined) ?
Given back: 17.8 µM (inactive)

Asked: And `CCN(CC)CSc1nc2ccccc2s1` ?
Given back: > 100 µM (inactive)

Asked: And `Cn1c([C@H](C#N)C(=O)c2cc(O)ccc2[N+](=O)[O-])nc2ccccc21` ?
Given back: > 100 µM (inactive)

Asked: And `O=C(O)CCCC(=O)Nn1c(Cc2ccc(Cl)cc2)n[nH]c1=O` ?
Given back: > 100 µM (inactive)

Asked: And `CC[C@H]1[C@@H](C)C=C[C@@H](C)N1S(=O)(=O)c1ccc(C)cc1` ?
Given back: > 100 µM (inactive)

Asked: And `CCOc1cccc2sc(N)nc12` ?
Given back: 49 µM (inactive)

Asked: And `Cc1c(C)n(-c2ccccc2)c2nc(S(C)(=O)=O)nc(S(C)(=O)=O)c12` ?
Given back: 5.41 µM (inactive)

Asked: And `C/C(CC(=O)Nc1ccc(Cl)cc1)=N\NC(=O)C[n+]1ccccc1` ?
Given back: > 100 µM (inactive)

Asked: And O=C(CCSC(CC(=O)c1ccc(Cl)cc1)c1ccc(Cl)cc1)Nc1ccc(Cl)cc1 (centres undefined) ?
Given back: 12.7 µM (inactive)

Asked: And `COC(=O)c1ccc(/C=C2\Cc3ccccc3C2=O)cc1` ?
Given back: > 100 µM (inactive)

Asked: And `O=C(O)CNc1c2ccccc2nc2ccccc12` ?
Given back: > 100 µM (inactive)

Asked: And `CCCOCN1COCN/C1=N\C#N` ?
Given back: > 100 µM (inactive)

Asked: And O=C(CCCN1CCC2(CC1)CC(c1ccccc1)OC2=O)c1ccc(F)cc1 (centres undefined) ?
Given back: > 100 µM (inactive)

Asked: And `Cc1ccccc1NC(=O)/C=N/O` ?
Given back: 22 µM (inactive)

Asked: And `Cc1ccc(S(=O)(=O)N2CCN(CCO)CCN(S(=O)(=O)c3ccc(C)cc3)CCN(CCO)CC2)cc1` ?
Given back: 18.2 µM (inactive)

Asked: And `COc1cc(CCc2cccnc2)cc(OC)c1OC` ?
Given back: > 100 µM (inactive)

Asked: And `O=C1Sc2ccccc2NC1=C(C(=O)c1ccccc1)C(=O)c1ccccc1` ?
Given back: 33.1 µM (inactive)

----------
system: A549; assay: NCI tumour cell line growth inhibition, 48 h
Calls of active or inactive are those of the source. No stated cut-off is given here; in the data, active = GI50 up to about 1.1 µM and inactive = higher.
Field: GI50. Provide a value for each of the compounds that follow.

Asked: // lookup GI50 for `Cc1cc(C[C@H]2O[C@@H]3OC(C)(C)O[C@@H]3[C@H]3OC(C)(C)O[C@H]32)c2ccccc2n1`
Given back: 63.4 µM (inactive)

Asked: And `Cc1ccc(/C=C2\CNC/C(=C\c3ccc(C)cc3)C2=O)cc1` ?
Given back: 2.83 µM (inactive)

Asked: And `Cc1cc(C)n(C(=CC(=O)C(Cl)Cl)n2nc(C)cc2C)n1` ?
Given back: 21.7 µM (inactive)

Asked: And COC(=O)C(=O)C(C(=O)C(=O)Nc1ccc(C)cc1C)c1nc2ccccc2nc1O (centres undefined) ?
Given back: 31.7 µM (inactive)

Asked: And `S=C1Cc2c(-c3ccccc3)cc(-c3ccc(Cl)cc3)nc2-c2ccccc2N1` ?
Given back: 3.17 µM (inactive)

Asked: And `CC(C)[C@H](COC(C)(C)C)/N=C/N1CSc2ccccc21` ?
Given back: 42 µM (inactive)

Asked: And `COc1ccc2c(c1OC)OC[C@@H](C1=CC(=O)C=C(O)C1=O)C2` ?
Given back: 18.2 µM (inactive)

Asked: And `O=C(C=P(c1ccccc1)(c1ccccc1)c1ccccc1)CC(=S)CC(=O)C=P(c1ccccc1)(c1ccccc1)c1ccccc1` ?
Given back: 4.17 µM (inactive)

Asked: And `Cc1cnoc1/N=C1\C=C(O)C(=O)c2ccccc21` ?
Given back: 6.7 µM (inactive)

----------
test system: A549; experiment: NCI tumour cell line growth inhibition, 48 h
The source made the active and inactive calls. No stated cut-off is given here; in the data, active = GI50 up to about 1.1 µM and inactive = higher.
Bench note: report the call from t = active, f = inactive

Asked: Outcome? `CC1(C)[C@@H](Cn2cnc3c(Cl)nc(N)nc32)CC[C@@]1(C)CO`
Given back: f

Asked: And `Oc1c2c(nc3cc4c(cc13)OCO4)-c1ccccc1CCC2` ?
Given back: f

Asked: And N#CC1(C=O)c2ccccc2C=CN1C(=O)c1ccccc1 (stereo not drawn) ?
Given back: f

Asked: And `Cc1cc(=O)oc2cc(OC(=O)Nc3ccc(Cl)c(Cl)c3)ccc12` ?
Given back: f

Asked: And `C[C@]1(O)CC[C@H]2[C@@H]3CCc4cc(O)ccc4[C@H]3CC[C@@]21C` ?
Given back: f

Asked: And COc1cccc(N[C@@H]2c3cc4c(cc3C(c3cc(OC)c(O)c(OC)c3)[C@H]3C(=O)OCC32)OCO4)c1 (stereo partly drawn) ?
Given back: t

Asked: And `CCOC(=O)C1=NN(c2ccccc2)C(=O)/C1=C\NC(=S)C(N)=S` ?
Given back: f

Asked: And COc1cc2c(cc1OC)C1=CCC(c3ccccc3)[N+]1(C)CC2 (stereo not drawn) ?
Given back: f

Asked: And C[N+]12CCCCC1C(COc1cccc3cccnc13)CCC2 (stereo not drawn) ?
Given back: f

Asked: And `CC(C)c1cccc(C(C)C)c1NC(=S)Nc1ccccc1` ?
Given back: f

Asked: And `COc1cc(C(=O)C/C(CCC(=O)Nc2ccc(Cl)cc2Cl)=N/NC(=O)C(N)=O)ccc1O` ?
Given back: f

Asked: And CC(=O)OC1[C@H](n2ccnc2)C[C@H]2[C@@H]3CC=C4CC(N5CCCC5)CC[C@]4(C)[C@H]3CC[C@]12C (stereo partly drawn) ?
Given back: f

Asked: And `CC(C)(C)OC(=O)N1CCCC1=O` ?
Given back: f

Asked: And `CCOc1ccc2ccc3cccnc3c2n1` ?
Given back: f

Asked: And COc1ccc(C2CC3(c4ccccc4)ON=C(c4ccccc4)N3c3ccccc3S2)cc1 (stereo not drawn) ?
Given back: f

Asked: And `C/C(CC(=O)Nc1ccc(Cl)cc1)=N\NC(=O)C[n+]1ccccc1` ?
Given back: f

Asked: And `CCOc1ccc(/C(Cl)=C(\C=O)c2ccc(OC)c(OC)c2)cc1OCC` ?
Given back: f

Asked: And `COC(=O)[C@@H]1CN(C(=O)c2ccccc2)C(=O)N1` ?
Given back: f

Asked: And `COc1ccc2c(c1)OCCc1cn[nH]c1-2` ?
Given back: f

Asked: And `c1ccc2c(c1)nc1ccccn12` ?
Given back: f

Asked: And O=C1NC2CCCCC2N=C1CC(=O)c1ccc(Br)cc1 (stereo not drawn) ?
Given back: f

Asked: And `COc1nn(Cc2ccccc2F)c2ccc([N+](=O)[O-])cc12` ?
Given back: f

Asked: And COc1cc(C2SC(=N)Nc3c2c(C)nn3C(=O)c2ccc(Cl)cc2)cc(OC)c1OC (stereo not drawn) ?
Given back: f

Asked: And O=C(CCCN1CCC2(CC1)CC(c1ccccc1)OC2=O)c1ccc(F)cc1 (stereo not drawn) ?
Given back: f

Asked: And `CCOc1cccc2sc(N)nc12` ?
Given back: f

Asked: And `CC(C)NC(=O)OCCN=c1c2ccccc2ccc2ccccc12` ?
Given back: f

Asked: And CC(=O)OCC1OC(N2C(=O)C(=O)c3ccccc32)C(OC(C)=O)C(OC(C)=O)C1OC(C)=O (stereo not drawn) ?
Given back: f

Asked: And `CS/C(=N\c1ccccc1Cl)NC(=O)c1ccc(Br)cc1` ?
Given back: f

Asked: And `CCOC(=O)/C(C#N)=C1/C(O)=C(C(=O)OC)C(C(=O)OC)=C1C(=O)OC.c1ccncc1` ?
Given back: f

Asked: And `Cc1cn(S(=O)(=O)c2ccccc2)c2c(OCc3ccccc3)cc(NC(=O)c3cc4cc([N+](=O)[O-])ccc4s3)cc12` ?
Given back: f

Asked: And `C[C@H]1C[C@H]2[C@@H]3CCC4=CC(=O)C=C[C@]4(C)C3=CC[C@]2(C)[C@@]1(O)C(=O)CO` ?
Given back: f

Asked: And COC(=O)C1=C(C(=O)OC)C2C(C)=CC(C)=CN2C(C#N)=C(SC)S1 (stereo not drawn) ?
Given back: f

Asked: And CSc1nc(Br)nc2ncn(C3CC(Oc4ccc(C)cc4)C(COc4ccc(C)cc4)O3)c12 (stereo not drawn) ?
Given back: f

Asked: And CC1=NN(C(=O)CC(=O)Nc2cccc(Cl)c2)C(=O)C1/N=N/c1ccc(C(=O)O)cc1 (stereo not drawn) ?
Given back: f

Asked: And `CCc1cccc(C)c1NC(=O)C1=C(C)NC(C)=C(C(=O)Nc2c(C)cccc2CC)C1c1ccc([N+](=O)[O-])cc1` ?
Given back: f

Asked: And CC(=O)NC1(NC(C)=O)C2CC(C1Cc1ccccc1)C(C)(C)C2C (stereo not drawn) ?
Given back: f

Asked: And `Cc1cc(S(=O)(=O)/N=C(\NN)NCC(=O)NN)c(S)cc1Cl` ?
Given back: f

Asked: And `CCc1nnc(-c2nsc3ccccc23)s1` ?
Given back: f

Asked: And CC(=O)OC1CC2OC(Cc3ccccc32)O1 (stereo not drawn) ?
Given back: f

Asked: And `COc1cc(OCc2ccc3nc(-c4ccccc4)c(N)nc3c2)cc(OC)c1OC` ?
Given back: f

Asked: And N#CC(c1ccc(Cl)cc1)c1cccc(Cl)n1 (stereo not drawn) ?
Given back: f

Asked: And `CCN(CC)/[N+]([O-])=N/OCOC` ?
Given back: f

Asked: And `O=C(O)CNc1c2ccccc2nc2ccccc12` ?
Given back: f
